- Test system: PC-9 (KRAS wild type human lung adenocarcinoma cell line)
- test-details: KRAS 3D-Cell Proliferation Assay, PC-9 (Example 503)
- Type: cell-based
- condition-notes: 168 h, PC-9 3D culture, 7 days, CellTiter-Glo 3D, read-out: Prolif PC9 3D ATP IC50
For each record, write down the corresponding pIC50.
Here pIC50 is given on a logarithmic scale as minus log10 of the concentration in mol/L.

According to the records, this molecule Cc1cc(N)nc(-c2nc3c4c(nc(OC[C@@]56CCCN5CC5(CC5(F)F)C6)nc4c2F)N2C[C@H]4CC[C@H](N4)[C@H]2[C@H](C)O3)c1C(F)(F)F (stereo partly drawn) displays pIC50 of 5.05

According to the records, this molecule C[C@@H]1Oc2nc(-c3cccc4cccc(Cl)c34)c(F)c3nc(OCC45CCN4CC(F)(F)C5)nc(c23)N2C[C@H]3CC[C@H](N3)[C@@H]12 (single isomer, unassigned) displays pIC50 of 5.11

According to the records, this molecule `Cc1cc(N)cc(-c2nc3c4c(nc(OC[C@]56CCN5CC(F)(F)C6)nc4c2F)N2C[C@H]4CC[C@H](N4)[C@H]2[C@H](C)O3)c1C(F)(F)F` displays pIC50 of 4.78

---

- Test system: PC-9 (KRAS wild type human lung adenocarcinoma cell line)
- test-details: KRAS 3D-Cell Proliferation Assay, PC-9 (Example 503)
- Format: cell-based
- condition-notes: 168 h, PC-9 3D culture, 7 days, CellTiter-Glo 3D, read-out: Prolif PC9 3D ATP IC50
For each record, write down the corresponding pIC50.
Here pIC50 is given on a logarithmic scale as minus log10 of the concentration in mol/L.

According to the records, this compound `C[C@@H]1Oc2nc(-c3c(C(F)(F)F)ccc(N)c3F)c(F)c3nc(OC[C@@]45CCCN4C[C@H](F)C5)nc(c23)N2C[C@H]3CC[C@H](N3)[C@@H]12` displays pIC50 of 5.04

According to the records, this compound C[C@@H]1Oc2nc(-c3cncc4ccccc34)c(F)c3nc(OC[C@@]45CCCN4CC4(CC4(F)F)C5)nc(c23)N2C[C@H]3CC[C@H](N3)[C@@H]12 (some centres unmarked) displays pIC50 of 5.42

According to the records, this compound `C[C@@H]1Oc2nc(-c3cccc(N)c3F)c(F)c3nc(OC[C@@]45CCCN4C[C@H](F)C5)nc(c23)N2C[C@H]3CC[C@H](N3)[C@@H]12` displays pIC50 of 4.86

According to the records, this compound `Cc1c(F)c(N)cc(-c2nc3c4c(nc(OC[C@@H]5CC[C@H]6COCCN65)nc4c2F)N2C[C@H]4CC[C@H](N4)[C@H]2[C@H](C)O3)c1C(F)(F)F` displays pIC50 of 5.42

According to the records, this compound `Cc1c(F)c(N)cc(-c2nc3c4c(nc(OC[C@H]5CC(F)(F)CN5C)nc4c2F)N2C[C@H]4CC[C@H](N4)[C@H]2[C@H](C)O3)c1C(F)(F)F` displays pIC50 of 5.32

According to the records, this compound C#Cc1cccc2cc(O)cc(-c3nc4c5c(nc(OCC67CCN6CC(F)(F)C7)nc5c3F)N3C[C@H]5CC[C@H](N5)[C@H]3[C@H](C)O4)c12 (single isomer, unassigned) displays pIC50 of 5.06

According to the records, this compound `Fc1c(-c2cccc3cccc(Cl)c23)nc2c3c(nc(OC[C@@]45CCCN4C[C@H](F)C5)nc13)N1C[C@H]3CC[C@H](N3)[C@H]1CO2` displays pIC50 of 5.33

According to the records, this compound `C[C@@H]1Oc2nc(-c3cc(O)cc4cccc(F)c34)c(F)c3nc(OC[C@@]45CCCN4C[C@H](F)C5)nc(c23)N2C[C@H]3CC[C@H](N3)[C@@H]12` displays pIC50 of 5.11

---

- Tested on: HPAC (homozygous mutant KRAS G12D human pancreatic cell line)
- test-details: KRAS 3D-Cell Proliferation Assay, HPAC (Example 503)
- Assay type: cell-based
- condition-notes: HPAC 3D culture, 7 days, CellTiter-Glo 3D; read-out: Prolif HPAC 3D ATP IC50
For each record, write down the corresponding pIC50.
Here pIC50 is given on a logarithmic scale as minus log10 of the concentration in mol/L.

According to the records, this compound Cc1c(F)c(N)cc(-c2nc3c4c(nc(OC[C@]5(CN6CC7(COC7)C6)CC5(F)F)nc4c2F)N2C[C@H]4CC[C@H](N4)[C@H]2[C@H](C)O3)c1C(F)(F)F (mixture of isomers) displays pIC50 of 9.20

According to the records, this compound `Cc1c(F)c(N)cc(-c2nc3c4c(nc(OC[C@]5(CN6CCOCC6)CC5(F)F)nc4c2F)N2C[C@H]4CC[C@H](N4)[C@H]2[C@H](C)O3)c1C(F)(F)F` displays pIC50 of 8.80

According to the records, this compound Cc1c(F)c(N)cc(-c2nc3c4c(nc(OC[C@@]56CCCN5C[C@H](F)C6)nc4c2F)N2C[C@H]4CC[C@H](N4)C2C(C(F)F)O3)c1C(F)(F)F (single isomer, unassigned) [238 (isomer 2)] displays pIC50 of 5.70

According to the records, this compound Cc1c(F)c(N)cc(-c2nc3c4c(nc(OC[C@]5(CN6C[C@H]7C[C@@H]6CO7)CC5(F)F)nc4c2F)N2C[C@H]4CC[C@H](N4)[C@H]2[C@H](C)O3)c1C(F)(F)F (single isomer, unassigned) displays pIC50 of 8.84

---

- target-or-system: KRAS G12D (Homo sapiens, UniProt P01116, G12D)
- Sequence (P01116 1-188 isoform P01116-2 G12D): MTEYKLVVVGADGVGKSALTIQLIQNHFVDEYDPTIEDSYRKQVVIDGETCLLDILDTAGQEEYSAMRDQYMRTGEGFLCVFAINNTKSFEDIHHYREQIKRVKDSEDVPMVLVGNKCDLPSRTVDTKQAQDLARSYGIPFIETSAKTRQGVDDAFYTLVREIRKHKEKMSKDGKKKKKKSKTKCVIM
- test-details: KRAS G12D LoEnz Biochemical Assay, BODIPY-GDP Exchange TR-FRET (Example 500)
- condition-notes: SOS1-mediated BODIPY-GDP exchange TR-FRET, read-out: KRas (G12D) GDP HTRF IC50
The threshold is 3 nM. Values of IC50 beneath it are tagged class 1; values meeting or exceeding it are tagged class 0.

stdin: In the record for Cc1c(Cl)c(N)cc(-c2nc3c4c(nc(OC[C@@]56CCCN5C[C@H](F)C6)nc4c2F)N2C[C@H]4CC[C@H](N4)[C@H]2[C@H](C)O3)c1C(F)(F)F (single isomer, unassigned) [Compound 200] , is IC50 less than 3 nM?
stdout: class 1

stdin: In the record for Cc1c(F)c(N)cc(-c2nc3c4c(nc(OC[C@@]56CCCN5C[C@H](F)C6)nc4c2F)N2C[C@H]4CC[C@H](N4)[C@H]2[C@@H](C(F)(F)F)O3)c1C(F)(F)F [Compound 246] , is IC50 less than 3 nM?
stdout: class 0

stdin: In the record for Cc1cc(N)c(Cl)c(-c2nc3c4c(nc(OC[C@@]56CCCN5C[C@H](F)C6)nc4c2F)N2C[C@H]4CC[C@H](N4)[C@H]2[C@H](C)O3)c1C(F)(F)F (single isomer, unassigned) [Compound 199] , is IC50 less than 3 nM?
stdout: class 1

stdin: In the record for Cc1cc(N)c(Cl)c(-c2nc3c4c(nc(OC[C@@]56CCCN5C[C@H](F)C6)nc4c2Cl)N2C[C@H]4CC[C@H](N4)[C@H]2[C@H](C)O3)c1C(F)(F)F (single isomer, unassigned) [240 (atrop. 1)] , is IC50 less than 3 nM?
stdout: class 0

stdin: In the record for Cc1nc(N)c(F)c(-c2nc3c4c(nc(OC[C@@]56CCCN5CC5(CC5(F)F)C6)nc4c2F)N2C[C@H]4CC[C@H](N4)[C@H]2[C@H](C)O3)c1C(F)(F)F (stereo partly shown) [Compound 221] , is IC50 less than 3 nM?
stdout: class 1

stdin: In the record for Cc1cc(N)c(Cl)c(-c2nc3c4c(nc(OC[C@@]56CCCN5C[C@H](F)C6)nc4c2Cl)N2C[C@H]4CC[C@H](N4)[C@H]2[C@H](C)O3)c1C(F)(F)F (single isomer, unassigned) [240 (atrop. 2)] , is IC50 less than 3 nM?
stdout: class 1

---

- target-or-system: KRAS WT (Homo sapiens)
- Sequence (P01116 1-188 isoform P01116-2): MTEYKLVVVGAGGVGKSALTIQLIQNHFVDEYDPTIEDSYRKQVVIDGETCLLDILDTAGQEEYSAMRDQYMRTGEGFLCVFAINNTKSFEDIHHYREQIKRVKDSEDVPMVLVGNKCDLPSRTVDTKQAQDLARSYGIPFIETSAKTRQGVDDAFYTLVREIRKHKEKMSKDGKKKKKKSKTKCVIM
- test-details: KRAS WI Biochemical Assay, BODIPY-GDP Exchange TR-FRET (Example 501; 3 nM KRAS WT, 3 nM SOS1, 60-minute incubation)
- condition-notes: SOS1-mediated BODIPY-GDP exchange, read-out: KRas(wt) GDP HTRF IC50
For each record, write down the corresponding IC50.

According to the records, this compound `C[C@@H]1Oc2nc(-c3cc(O)cc4cccc(F)c34)c(F)c3nc(OC[C@@]45CCCN4C[C@H](F)C5)nc(c23)N2C[C@H]3CC[C@H](N3)[C@@H]12` displays IC50 of 0.00651 µM

According to the records, this compound `Nc1nc2c(-c3nc4c5c(ncnc5c3F)N3C[C@H]5CC[C@H](N5)[C@H]3CO4)ccc(F)c2s1` displays IC50 of ≥ 200 µM

According to the records, this compound `Fc1c(-c2cccc3cccc(Cl)c23)nc2c3c(ncnc13)N1C[C@H]3CC[C@H](N3)[C@H]1CO2` displays IC50 of ≥ 200 µM
